Reported pIC50 values for the following molecules.
Biological target: PCSK9Δhelix (Homo sapiens, UniProt Q8NBP7)
Construct: Human PCSK9 construct M1-Q692 with an engineered TEV site (residue deletion Y166, R167); made in house; host or cells: CHO
Sequence (Q8NBP7 with tags, fused parts or gaps limits assumed): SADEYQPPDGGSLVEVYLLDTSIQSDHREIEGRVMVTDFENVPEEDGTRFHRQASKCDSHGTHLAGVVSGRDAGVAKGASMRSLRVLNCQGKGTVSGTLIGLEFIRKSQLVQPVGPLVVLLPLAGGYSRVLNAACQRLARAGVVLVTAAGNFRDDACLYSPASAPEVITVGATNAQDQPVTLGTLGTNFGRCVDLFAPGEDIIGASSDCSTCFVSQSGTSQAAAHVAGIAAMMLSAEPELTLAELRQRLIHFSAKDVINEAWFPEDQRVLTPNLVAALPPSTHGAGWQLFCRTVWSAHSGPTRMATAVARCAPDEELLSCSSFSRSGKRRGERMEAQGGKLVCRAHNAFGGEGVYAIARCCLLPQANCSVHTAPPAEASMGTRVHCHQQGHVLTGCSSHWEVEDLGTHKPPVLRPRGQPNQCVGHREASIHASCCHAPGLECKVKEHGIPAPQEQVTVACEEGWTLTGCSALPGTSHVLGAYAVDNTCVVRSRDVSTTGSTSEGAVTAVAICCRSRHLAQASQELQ
Sequence (Q8NBP7 31-152 partner limits assumed): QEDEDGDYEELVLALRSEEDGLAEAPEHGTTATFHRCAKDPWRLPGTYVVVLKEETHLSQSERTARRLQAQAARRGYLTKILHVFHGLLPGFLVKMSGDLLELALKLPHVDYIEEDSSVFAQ
Assay: PCSK9Δhelix/Ab20 TR-FRET binding assay
Conditions: TR-FRET; Table 8D, disulfide-cyclized extension peptides; read-out: PCSK9Δhelix/Ab20 IC50
pIC50: −log10 of the molar value. Bridge positions count the residues as written; N and C are the ends. Square brackets hold non-standard residues; d marks the D form. Peptide text beside a SMILES is read from it. Ahp = NCCCCCCC(=O)O

{"MOLECULE": "CC[C@H](C)[C@@H]1NC(=O)[C@H](CCCNC(=N)N)NC(=O)[C@H](CCC(N)=O)NC(=O)[C@H](CC(C)C)NC(=O)[C@H](CC(N)=O)NC(=O)[C@H](Cc2c[nH]c3ccccc23)NC(=O)[C@@H]2CCCN2C(=O)[C@H](CC(C)C)NC(=O)[C@H](CCCNC(=N)N)NC(=O)[C@@H](NC(C)=O)CSSC[C@@H](C(N)=O)NC(=O)CCCCCCNC1=O [Compound 121] (Ac-CRLPWNLQRI[Ahp]C-NH2; disulfide 1-12)", "QUAL": "=", "pIC50": 4.39}
{"MOLECULE": "CC[C@H](C)[C@@H]1NC(=O)[C@H](CCCNC(=N)N)NC(=O)[C@H](CCC(N)=O)NC(=O)[C@H](CC(C)C)NC(=O)[C@H](CC(N)=O)NC(=O)[C@H](Cc2c[nH]c3ccccc23)NC(=O)[C@H]2CCCN2C(=O)[C@H](CC(C)C)NC(=O)[C@H](CCCNC(=N)N)NC(=O)[C@@H](NC(C)=O)CSSC[C@@H](C(N)=O)NC(=O)[C@@H]2CCCN2C(=O)[C@H](CC(C)C)NC(=O)CNC1=O [Compound 107] (Ac-CRL[dP]WNLQRIGLPC-NH2; disulfide 1-14)", "QUAL": "<", "pIC50": 4.30}
{"MOLECULE": "CC[C@H](C)[C@@H]1NC(=O)[C@H](CCCNC(=N)N)NC(=O)[C@H](CCC(N)=O)NC(=O)[C@@H](CC(C)C)NC(=O)[C@H](CC(N)=O)NC(=O)[C@H](Cc2c[nH]c3ccccc23)NC(=O)[C@@H]2CCCN2C(=O)[C@H](CC(C)C)NC(=O)[C@H](CCCNC(=N)N)NC(=O)[C@@H](NC(C)=O)CSSC[C@@H](C(N)=O)NC(=O)[C@@H]2CCCN2C(=O)[C@H](CC(C)C)NC(=O)CNC1=O [Compound 104, Ac-CRLPWNlQRIGLPC-NH2] (Ac-CRLPWN[dL]QRIGLPC-NH2; disulfide 1-14)", "QUAL": "<", "pIC50": 4.30}
{"MOLECULE": "CC[C@H](C)[C@@H]1NC(=O)[C@H](CCCNC(=N)N)NC(=O)[C@H](CCC(N)=O)NC(=O)[C@H](CC(C)C)NC(=O)[C@H](CC(N)=O)NC(=O)[C@H](Cc2c[nH]c3ccccc23)NC(=O)[C@@H]2CCCN2C(=O)[C@H](CC(C)C)NC(=O)[C@H](CCCNC(=N)N)NC(=O)[C@@H](NC(C)=O)CSSC[C@@H](C(N)=O)NC(=O)[C@H](C)NC(=O)[C@H](CC(C)C)NC(=O)CNC1=O [Compound 68] (Ac-CRLPWNLQRIGLAC-NH2; disulfide 1-14)", "QUAL": "=", "pIC50": 6.03}
{"MOLECULE": "CC[C@H](C)[C@@H]1NC(=O)[C@H](CCCNC(=N)N)NC(=O)[C@H](CCC(N)=O)NC(=O)[C@H](CC(C)C)NC(=O)[C@H](CC(N)=O)NC(=O)[C@H](Cc2c[nH]c3ccccc23)NC(=O)[C@@H]2CCCN2C(=O)[C@H](CC(C)C)NC(=O)[C@H](CCCNC(=N)N)NC(=O)[C@@H](NC(C)=O)CSSC[C@@H](C(N)=O)NC(=O)[C@@H]2CCCN2C(=O)[C@@H](CC(C)C)NC(=O)CNC1=O [Compound 100] (Ac-CRLPWNLQRIG[dL]PC-NH2; disulfide 1-14)", "QUAL": "<", "pIC50": 4.30}
{"MOLECULE": "CC[C@H](C)[C@@H]1NC(=O)[C@H](CCCNC(=N)N)NC(=O)[C@H](C)NC(=O)[C@H](CC(C)C)NC(=O)[C@H](CC(N)=O)NC(=O)[C@H](Cc2c[nH]c3ccccc23)NC(=O)[C@@H]2CCCN2C(=O)[C@H](CC(C)C)NC(=O)[C@H](CCCNC(=N)N)NC(=O)[C@@H](NC(C)=O)CSSC[C@@H](C(N)=O)NC(=O)[C@@H]2CCCN2C(=O)[C@H](CC(C)C)NC(=O)CNC1=O [Compound 73] (Ac-CRLPWNLARIGLPC-NH2; disulfide 1-14)", "QUAL": "=", "pIC50": 6.04}
{"MOLECULE": "CC[C@H](C)[C@@H]1NC(=O)[C@H](CCCNC(=N)N)NC(=O)[C@H](CCCCN)NC(=O)[C@H](CC(C)C)NC(=O)[C@H](CC(N)=O)NC(=O)[C@H](Cc2c[nH]c3ccccc23)NC(=O)[C@H](CC(C)C)NC(=O)[C@@H](NC(=O)CNC(C)=O)CSSC[C@@H](C(=O)N[C@@H](Cc2c[nH]c3ccccc23)C(=O)N[C@@H](Cc2ccccc2)C(N)=O)NC(=O)[C@H](CCC(N)=O)NC(=O)[C@H](CO)NC(=O)CNC1=O [Compound 87] (Ac-GCLWNLKRIGSQCWF-NH2; disulfide 2-13 (inferred))", "QUAL": "=", "pIC50": 5.02}
{"MOLECULE": "CC[C@H](C)[C@@H]1NC(=O)[C@H](CCCNC(=N)N)NC(=O)[C@H](CCCCN)NC(=O)[C@H](CC(C)C)NC(=O)[C@H](CC(N)=O)NC(=O)[C@H](Cc2c[nH]c3ccccc23)NC(=O)[C@H](CC(C)C)NC(=O)[C@@H](NC(=O)[C@H](CCSC)NC(C)=O)CSSC[C@@H](C(=O)N[C@@H](CCC(=O)O)C(=O)N[C@@H](Cc2ccc(O)cc2)C(N)=O)NC(=O)[C@H](CCC(N)=O)NC(=O)[C@H](CO)NC(=O)CNC1=O [Compound 63] (Ac-MCLWNLKRIGSQCEY-NH2; disulfide 2-13)", "QUAL": "=", "pIC50": 5.22}
{"MOLECULE": "CC[C@H](C)[C@@H]1NC(=O)[C@H](CCCNC(=N)N)NC(=O)[C@H](CCCCN)NC(=O)[C@H](CC(C)C)NC(=O)[C@H](CC(N)=O)NC(=O)[C@H](Cc2c[nH]c3ccccc23)NC(=O)[C@H](CC(C)C)NC(=O)[C@@H](NC(=O)[C@H](Cc2ccccc2)NC(C)=O)CSSC[C@@H](C(=O)N[C@@H](CCC(=O)O)C(=O)N[C@@H](Cc2ccc(O)cc2)C(N)=O)NC(=O)[C@H](CCC(N)=O)NC(=O)[C@H](CO)NC(=O)CNC1=O [Compound 95] (Ac-FCLWNLKRIGSQCEY-NH2; disulfide 2-13)", "QUAL": "=", "pIC50": 4.90}

====

Target: PCSK9Δhelix (Homo sapiens, UniProt Q8NBP7)
Construct: Human PCSK9 construct M1-Q692 with an engineered TEV site (residue deletion Y166, R167); made in house; host or cells: CHO
Test: PCSK9Δhelix/Ab20 TR-FRET binding assay
Settings: TR-FRET; Table 8E, additional compounds; read-out: PCSK9Δhelix/Ab20 IC50
Square brackets hold non-standard residues; d marks the D form. Peptide text beside a SMILES is read from it. * marks the point of attachment. Butyryl(4-indol-3-yl) = O=C(CCCc1c[nH]c2ccccc12)*; Desaminotyrosyl = O=C(CCc1ccc(O)cc1)*; X16 = O=C(c1cc(-c2ccncc2)[nH]n1)*; hArg = N=C(N)NCCCC[C@H](N)C(=O)O; X18 = COc1ccc(OCCC(=O)*)cc1; Cbz = O=C(OCc1ccccc1)*; GABA = NCCCC(=O)O
Readings of log10(IC50) for the listed molecules
PROPERTY_MEASURED: log10(IC50) (log10 of the value in µM)

{"MOLECULE": "CC[C@H](C)[C@H](NC(=O)[C@H](CCCNC(=N)N)NC(=O)[C@@H](NC(=O)[C@H](CC(C)C)NC(=O)[C@H](CC(N)=O)NC(=O)[C@H](Cc1c[nH]c2ccccc12)NC(=O)CCCNC(=O)OCc1ccccc1)C(C)C)C(=O)NCC(=O)N[C@@H](CC(C)C)C(=O)N[C@H](C(=O)N[C@@H](CCCNC(=N)N)C(N)=O)[C@@H](C)O [Compound 169] ({Cbz-GABA}-WNLVRIGLTR-NH2)", "TARGET_OF_ASSAY": "PCSK9Δhelix (Homo sapiens, UniProt Q8NBP7)", "PROPERTY_MEASURED": "log10(IC50)", "EXPERIMENTAL_RESULT": 0.83}
{"MOLECULE": "CC[C@H](C)[C@H](NC(=O)[C@H](CCCCNC(=N)N)NC(=O)[C@@H](NC(=O)[C@H](CC(C)C)NC(=O)[C@H](CC(N)=O)NC(=O)[C@H](Cc1c[nH]c2ccccc12)NC(=O)CCCc1c[nH]c2ccccc12)C(C)C)C(=O)NCC(=O)N[C@@H](CC(C)C)C(=O)N[C@@H](CC(C)C)C(=O)N[C@@H](CCCNC(=N)N)C(N)=O [Compound 200] ({Butyryl(4-indol-3-yl)}-WNLV[hArg]IGLLR-NH2)", "TARGET_OF_ASSAY": "PCSK9Δhelix (Homo sapiens, UniProt Q8NBP7)", "PROPERTY_MEASURED": "log10(IC50)", "EXPERIMENTAL_RESULT": -0.17}
{"MOLECULE": "CC[C@H](C)[C@H](NC(=O)[C@H](CCCNC(=N)N)NC(=O)[C@@H](NC(=O)[C@H](CC(C)C)NC(=O)[C@H](CC(N)=O)NC(=O)[C@H](Cc1c[nH]c2ccccc12)NC(=O)CCc1ccc(O)cc1)C(C)C)C(=O)NCC(=O)N[C@@H](CC(C)C)C(=O)N[C@H](C(=O)N[C@@H](CCCNC(=N)N)C(N)=O)[C@@H](C)O [Compound 170] (Desaminotyrosyl-WNLVRIGLTR-NH2)", "TARGET_OF_ASSAY": "PCSK9Δhelix (Homo sapiens, UniProt Q8NBP7)", "PROPERTY_MEASURED": "log10(IC50)", "EXPERIMENTAL_RESULT": 0.49}
{"MOLECULE": "CC[C@H](C)[C@H](NC(=O)[C@H](CCCNC(=N)N)NC(=O)[C@@H](NC(=O)[C@H](CC(C)C)NC(=O)[C@H](CC(N)=O)NC(=O)[C@H](Cc1c[nH]c2ccccc12)NC(=O)c1cc(-c2ccncc2)[nH]n1)C(C)C)C(=O)NCC(=O)N[C@@H](CC(C)C)C(=O)N[C@@H](CC(C)C)C(=O)N[C@@H](CCCNC(=N)N)C(N)=O [Compound 150] (X16-WNLVRIGLLR-NH2)", "TARGET_OF_ASSAY": "PCSK9Δhelix (Homo sapiens, UniProt Q8NBP7)", "PROPERTY_MEASURED": "log10(IC50)", "EXPERIMENTAL_RESULT": 0.91}
{"MOLECULE": "CC[C@H](C)[C@H](NC(=O)[C@H](CCCCNC(=N)N)NC(=O)[C@@H](NC(=O)[C@H](CC(C)C)NC(=O)[C@H](CC(N)=O)NC(=O)[C@H](Cc1c[nH]c2ccccc12)NC(=O)CCOc1ccc(OC)cc1)C(C)C)C(=O)NCC(=O)N[C@@H](CC(C)C)C(=O)N[C@@H](CC(C)C)C(=O)N[C@@H](CCCNC(=N)N)C(N)=O [Compound 203] (X18-WNLV[hArg]IGLLR-NH2)", "TARGET_OF_ASSAY": "PCSK9Δhelix (Homo sapiens, UniProt Q8NBP7)", "PROPERTY_MEASURED": "log10(IC50)", "EXPERIMENTAL_RESULT": 0.20}
